assay.target: PU.1 (UniProt P17947 165-270)
test.details: BLI; BLI on streptavidin biosensors; buffer with NaCl (concentration not in material), 0.01 mM EDTA, 0.05% Tween 20; pH and temperature not in material
pKd: −log10 of the molar value.
attribute.measured: pKd

> print(dat)
                                     binder  reported.measurement
1  26 (dsDNA) DNA 1: GACAGGATGTG DNA 2: CACATCCTGTC                  6.48
2  27 (dsDNA) DNA 1: GACAGCATGTG DNA 2: CACATGCTGTC                  5.80
